Where these numbers come from: ChEMBL document CHEMBL1127849

Tested on: Rattus norvegicus
ASSAY_REMARKS: Compound was evaluated in vivo for its antipsychotic activity for inhibition of apomorphine-induced stereotypy in rat
Assay type: functional
Could you mark each record Condition met if its ED50 falls strictly under 50 mg/kg, and Condition not met if it equals or exceeds it?

SMILES_REPRESENTATION: CN(CCCCN1CCN(c2csc3cc(F)ccc23)CC1)C(=O)c1nsc2ccccc12
GROUP: Condition met
--
SMILES_REPRESENTATION: O=C(NCCN1CCC(C(=O)c2ccc(F)cc2)CC1)c1nsc2ccccc12
GROUP: Condition met
--
SMILES_REPRESENTATION: COc1ccccc1N1CCN(CCNC(=O)c2nsc3ccccc23)CC1
GROUP: Condition not met
--
SMILES_REPRESENTATION: CN(CCCCN1CCN(c2csc3cc(F)ccc23)CC1)C(=O)c1noc2ccccc12
GROUP: Condition not met

Consider `CN(CCCCN1CCN(c2nsc3ccccc23)CC1)C(=O)c1nsc2ccccc12` . Does its ED50 lie strictly below 50 mg/kg?
Condition met

Please state whether ED50 is below 50 mg/kg for `Cc1nc2n(c(=O)c1CCN1CCC(c3noc4cc(F)ccc34)CC1)CCCC2`
Condition met

----------
# IC50 per record follows
TARGET_OR_TEST_SYSTEM: Adrenergic receptor alpha-1 (Rattus norvegicus, UniProt P15823+P23944+P43140)
ASSAY_REMARKS: Its affinity towards alpha-1 receptor using [3H]WB-4101 as radioligand in whole brain minus cerebellum
Format: tissue-based
Dear colleague, please return just the value in nM, with no unit written.

Solved cases (5 shown):
SMILES_REPRESENTATION: O=C(NCCN1CCC(n2c(O)nc3ccccc32)CC1)c1nsc2ccccc12
UNIT_TAG: nM
IC50: 39.8
--
SMILES_REPRESENTATION: CN(CCCN1CCC(C(=O)c2ccc(F)cc2)CC1)C(=O)c1noc2ccccc12
UNIT_TAG: nM
IC50: 43
--
SMILES_REPRESENTATION: O=C(NCCCCN1CCN(c2nsc3ccccc23)CC1)c1nsc2ccccc12
UNIT_TAG: nM
IC50: 5
--
SMILES_REPRESENTATION: COc1ccccc1N1CCN(CCCN(C)C(=O)c2nsc3ccccc23)CC1
UNIT_TAG: nM
IC50: 10.7
--
SMILES_REPRESENTATION: CN(CCCCN1CCN(c2csc3cc(F)ccc23)CC1)C(=O)c1nsc2ccccc12
UNIT_TAG: nM
IC50: 6.3

Given item `CN(CCCCN1CCN(c2csc3cc(F)ccc23)CC1)C(=O)c1noc2ccccc12` , the value recorded as its IC50 is 3.2

Documented IC50 of `CC(C)N(CCN1CCC(c2noc3cc(F)ccc23)CC1)C(=O)c1noc2ccccc12` : 5.5

GET /value?item= `COc1ccccc1N1CCN(CCCCN(C)C(=O)c2nsc3ccccc23)CC1` &field=IC50 returns 3.3

Sample `O=C(NCCN1CCC(c2noc3cc(Cl)ccc23)CC1)c1nsc2ccccc12` ; IC50 observed: 239

Reported IC50 of `COc1ccccc1N1CCN(CCCCNC(=O)c2nsc3ccccc23)CC1` : 6.4

----------
Overview of reported IC50 across a group of molecules:
TARGET_OR_TEST_SYSTEM: 5-hydroxytryptamine receptor 1A (Rattus norvegicus, UniProt P19327)
Sequence (P19327 whole entry): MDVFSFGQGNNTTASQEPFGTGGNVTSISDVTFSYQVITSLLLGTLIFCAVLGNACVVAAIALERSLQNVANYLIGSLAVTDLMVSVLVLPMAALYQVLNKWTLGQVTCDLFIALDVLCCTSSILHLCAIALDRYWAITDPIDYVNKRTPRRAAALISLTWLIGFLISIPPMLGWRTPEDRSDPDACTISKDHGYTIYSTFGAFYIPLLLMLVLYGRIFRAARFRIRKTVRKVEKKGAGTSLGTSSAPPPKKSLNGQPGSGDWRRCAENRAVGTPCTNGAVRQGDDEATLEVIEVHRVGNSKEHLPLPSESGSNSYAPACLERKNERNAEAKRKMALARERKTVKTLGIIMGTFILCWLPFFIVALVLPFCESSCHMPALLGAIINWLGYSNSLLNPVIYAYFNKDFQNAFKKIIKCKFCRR
Number in µM, nothing else.

Known IC50 results, listed for orientation:
SMILES_REPRESENTATION: CN(CCCCN1CCN(c2csc3cc(F)ccc23)CC1)C(=O)c1nsc2ccccc12
VAL: 0.366
--
SMILES_REPRESENTATION: COc1ccccc1N1CCN(CCNC(=O)c2nsc3ccccc23)CC1
VAL: 0.0039

Next molecule, please.
// sample `COc1ccccc1N1CCN(CCNC(=O)c2noc3ccccc23)CC1` , its IC50 was 0.021

----------
Each entry below carries its recorded IC50.
TARGET_OR_TEST_SYSTEM: 5-hydroxytryptamine receptor 1A (Rattus norvegicus)
ASSAY_REMARKS: In vitro affinity towards 5-hydroxytryptamine 1A receptor using [3H]8-OH-DPAT as radioligand in hippocampus
Type: tissue-based
Enter your answer as a number in nM; do not include the unit.

Known IC50 results, listed for orientation:
SMILES_REPRESENTATION: O=C(NCCN1CCC(c2noc3cc(Cl)ccc23)CC1)c1nsc2ccccc12
UNIT_TAG: nM
IC50: 3450
//
SMILES_REPRESENTATION: O=C(NCCN1CCN(Cc2ccccc2)CC1)c1nsc2ccccc12
UNIT_TAG: nM
IC50: 1880

The molecule listed as `CN(CCN1CCC(c2noc3cc(F)ccc23)CC1)C(=O)c1noc2ccccc12` has a reported IC50 of 440

According to the records, this molecule `COc1ccccc1N1CCN(CCCCNC(=O)c2nsc3ccccc23)CC1` displays IC50 of 2.3

Recorded result, `O=C(NCCN1CCC(C(=O)c2ccc(F)cc2)CC1)c1nsc2ccccc12` , IC50: 920

Reported IC50 for `O=C(NCCN1CCN(c2csc3cc(F)ccc23)CC1)c1noc2ccccc12` was 1040

For reference, reported IC50 for `COc1ccccc1N1CCN(CCCN(C)C(=O)c2nsc3ccccc23)CC1` stands at 149

// IC50 value for `CN(CCCN1CCC(C(=O)c2ccc(F)cc2)CC1)C(=O)c1nsc2ccccc12` : 4670

The molecule listed as `COc1ccccc1N1CCN(CCCCN(C)C(=O)c2nsc3ccccc23)CC1` has a reported IC50 of 4

Record `CN(CCN1CCC(C(=O)c2ccc(F)cc2)CC1)C(=O)c1noc2ccccc12` , field IC50: 1790

----------
TARGET_OR_TEST_SYSTEM: Adrenergic receptor alpha-1 (Rattus norvegicus, UniProt P15823+P23944+P43140)
ASSAY_REMARKS: Its affinity towards alpha-1 receptor using [3H]WB-4101 as radioligand in whole brain minus cerebellum
Format: tissue-based
OBSERVABLE: log10 of IC50 (log10 of the value in nM)
The figures below represent log10 of IC50, where IC50 is stated in nM.

SMILES_REPRESENTATION: O=C(NCCN1CCN(c2nsc3ccccc23)CC1)c1nsc2ccccc12
VAL: 1.28

Measured log10 of IC50, `CN(CCN1CCC(c2noc3cc(F)ccc23)CC1)C(=O)c1noc2ccccc12` : 2.02

Form: molecule = `O=C(NCCN1CCN(c2cccc(Cl)c2)CC1)c1nsc2ccccc12` ; log10 of IC50 = 1.91

Reported log10 of IC50 of `O=C(NCCCN1CCC(c2noc3cc(Cl)ccc23)CC1)c1nsc2ccccc12` : 1.97

Short answer for `CN(CCCCN1CCN(c2nsc3ccccc23)CC1)C(=O)c1nsc2ccccc12` : log10 of IC50 was 0.76

`O=C(NCCN1CCC(C(=O)c2ccc(F)cc2)CC1)c1nsc2ccccc12` has a reported log10 of IC50 of 1.20

Lab note: measured log10 of IC50 of `CN(CCCCN1CCC(C(=O)c2ccc(F)cc2)CC1)C(=O)c1nsc2ccccc12` was 0.51

----------
These molecules were tested on 5-hydroxytryptamine receptor 2A (Rattus norvegicus, UniProt P14842); IC50 is the recorded read-out.
Sequence (P14842 whole entry): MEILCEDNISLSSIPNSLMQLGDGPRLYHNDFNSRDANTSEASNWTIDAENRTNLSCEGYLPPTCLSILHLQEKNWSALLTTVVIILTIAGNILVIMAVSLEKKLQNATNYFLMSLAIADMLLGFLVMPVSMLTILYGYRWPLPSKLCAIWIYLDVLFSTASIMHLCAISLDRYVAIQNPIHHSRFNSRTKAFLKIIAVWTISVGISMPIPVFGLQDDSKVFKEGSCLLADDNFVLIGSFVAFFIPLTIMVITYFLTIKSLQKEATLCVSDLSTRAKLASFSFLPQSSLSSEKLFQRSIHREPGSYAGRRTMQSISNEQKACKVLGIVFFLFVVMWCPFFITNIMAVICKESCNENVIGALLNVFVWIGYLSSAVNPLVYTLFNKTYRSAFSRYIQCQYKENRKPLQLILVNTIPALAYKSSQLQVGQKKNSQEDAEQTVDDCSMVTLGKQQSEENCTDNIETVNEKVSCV
The response must be a number in nM with no trailing unit.

Use the examples below as a reference point.
SMILES_REPRESENTATION: O=C(NCCCN1CCC(c2noc3cc(Cl)ccc23)CC1)c1nsc2ccccc12
OBSERVABLE: IC50
VAL: 115
--
SMILES_REPRESENTATION: O=C(NCCCCN1CCN(c2nsc3ccccc23)CC1)c1nsc2ccccc12
OBSERVABLE: IC50
VAL: 201
--
SMILES_REPRESENTATION: CN(CCCCN1CCN(c2csc3cc(F)ccc23)CC1)C(=O)c1noc2ccccc12
OBSERVABLE: IC50
VAL: 188
--
SMILES_REPRESENTATION: CC(C)N(CCCN1CCC(C(=O)c2ccc(F)cc2)CC1)C(=O)c1noc2ccccc12
OBSERVABLE: IC50
VAL: 290

Recorded IC50 for `O=C(NCCN1CCN(c2csc3cc(F)ccc23)CC1)c1noc2ccccc12` on 5-hydroxytryptamine receptor 2A (Rattus norvegicus, UniProt P14842) was 309

Summary: `CN(CCN1CCC(c2noc3cc(F)ccc23)CC1)C(=O)c1noc2ccccc12` , 5-hydroxytryptamine receptor 2A (Rattus norvegicus, UniProt P14842), IC50 = 17.6

Record for `CN(CCCCN1CCN(c2csc3cc(F)ccc23)CC1)C(=O)c1nsc2ccccc12` under target or system 5-hydroxytryptamine receptor 2A (Rattus norvegicus, UniProt P14842): IC50 reported as 232

5-hydroxytryptamine receptor 2A (Rattus norvegicus, UniProt P14842) data for `COc1ccccc1N1CCN(CCCN(C)C(=O)c2nsc3ccccc23)CC1` ; its IC50: 1650

Reported 5-hydroxytryptamine receptor 2A (Rattus norvegicus, UniProt P14842) IC50 for item `O=C(NCCN1CCC(n2c(O)nc3ccccc32)CC1)c1nsc2ccccc12` was 641

For `O=C(NCCN1CCN(c2cccc(Cl)c2)CC1)c1nsc2ccccc12` on 5-hydroxytryptamine receptor 2A (Rattus norvegicus, UniProt P14842), measured IC50 was 726

Tested on 5-hydroxytryptamine receptor 2A (Rattus norvegicus, UniProt P14842): `CN(CCN1CCC(C(=O)c2ccc(F)cc2)CC1)C(=O)c1noc2ccccc12` . Observed IC50: 27

Considering `CN(CCN1CCC(C(=O)c2ccc(F)cc2)CC1)C(=O)c1nsc2ccccc12` , its IC50 with 5-hydroxytryptamine receptor 2A (Rattus norvegicus, UniProt P14842) was recorded as 51

Test item `CN(CCCCN1CCN(c2nsc3ccccc23)CC1)C(=O)c1nsc2ccccc12` ; 5-hydroxytryptamine receptor 2A (Rattus norvegicus, UniProt P14842); reported IC50 was 13
